Listing of entries alongside the reported GI50.
System: MDA-MB-435
Experiment: NCI tumour cell line growth inhibition, 48 h
Active and inactive are the calls of the source. Rule as the data show it: active = GI50 up to about 1.1 µM and inactive = higher.
measured.quantity: GI50

                                   compound       value_measured
0    O=C(O)Cc1ccc(Nc2nc3ccccc3nc2C(=O)O)cc1  > 100 µM (inactive)
1  N#CC(C(=O)O)C(c1c(Cl)cccc1Cl)C(C#N)C(=O)O (stereo unspecified)  > 100 µM (inactive)
2             CS(=O)(=O)OCCCNCCCOS(C)(=O)=O   2340 µM (inactive)
3  C=C(C)C1CCC(C(=O)O)CC1 (stereo unspecified)  > 100 µM (inactive)
4  CCOC(=O)c1c(-c2ccc(OC)cc2)c(C#N)c(=S)n(C2OC(COC(C)=O)C(OC(C)=O)C(OC(C)=O)C2OC(C)=O)c1C (stereo unspecified)  > 100 µM (inactive)
5                     Nc1nc(N)nc(CC(=O)O)n1  > 100 µM (inactive)
